System: rodent lifetime carcinogenesis bioassay, tumor incidence TD50
procedureText: carcinogenic potency in animals, long-term in vivo studies, CPDB compilation (AID 1745844)
appliedConditions: rat; strain Fischer 344; males; in feed; site: adrenal gland; lesion: pheochromocytoma; dosed 78 weeks; study length 106 weeks
attributeMeasured: TD50 (mg/kg/day)
Response body: numeric value in mg/kg/day, unit text excluded.

QUERY: Using the record for "c1ccc(NNc2ccccc2)cc1" , report its TD50.
RESULT: 16.2

---

System: rodent lifetime carcinogenesis bioassay, tumor incidence TD50
procedureText: carcinogenic potency in animals, long-term in vivo studies, CPDB compilation (AID 1745844)
appliedConditions: rat; strain MRC; females; by gavage; site: thyroid gland; lesion: several types; types named in the paper; dosed 73 weeks; study length 77 weeks
attributeMeasured: TD50 (mg/kg/day)
Response body: numeric value in mg/kg/day, unit text excluded.

QUERY: Using the record for "CC(=O)CN(CC(C)=O)N=O" , report its TD50.
RESULT: 1.39
